// reported protein stability index per item
B1: TCEB3B (parent)
chain: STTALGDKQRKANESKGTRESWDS

variants of: B1; assay: protein stability index of a GFP-peptide fusion (GPS, HEK-293T) (PSI 1-6); higher = more stable; conditions: c terminus: a fixed tail appended;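 further: lentivirally expressed fusions sorted by FACS into six bins by GFP to DsRed ratio, PSI derived from sequencing read proportions per bin multiplied by bin number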
Please state the value as a number alone, without comment.

protein stability index measured on N13D = 4.64

protein stability index measured on K8F = 3.88

protein stability index measured on G17W = 3.51
